Assay: Mean residence time in dog at 0.25 mg/kg, iv
Format: ADME, organism-based, Canis lupus familiaris
Design: dose 0.25 mg/kg, route intravenous
Settings: in vivo
result.type: MRT (h)
Report only the number, with the unit h understood.

For the molecule shown here, `O=C(N[C@H]1CCC[C@@H]1OCc1ccccc1)C1CCN(c2nc3cc(Cl)ccc3o2)CC1` , give the reported MRT.
8.1

---

Assay: Plasma protein binding in human
Format: ADME, cell-free
Conditions: read-out: PPB (converted)
result.type: fraction unbound
# answer = number (no unit)

Given the entry `O=C(NC1CCCC1)C1CCN(c2nc3cc(Cl)ccc3o2)CC1` , report its measured fraction unbound.
0.005
